- tgt: Crossover junction endonuclease MUS81 (Homo sapiens, UniProt Q96NY9)
- Sequence (Q96NY9 whole entry): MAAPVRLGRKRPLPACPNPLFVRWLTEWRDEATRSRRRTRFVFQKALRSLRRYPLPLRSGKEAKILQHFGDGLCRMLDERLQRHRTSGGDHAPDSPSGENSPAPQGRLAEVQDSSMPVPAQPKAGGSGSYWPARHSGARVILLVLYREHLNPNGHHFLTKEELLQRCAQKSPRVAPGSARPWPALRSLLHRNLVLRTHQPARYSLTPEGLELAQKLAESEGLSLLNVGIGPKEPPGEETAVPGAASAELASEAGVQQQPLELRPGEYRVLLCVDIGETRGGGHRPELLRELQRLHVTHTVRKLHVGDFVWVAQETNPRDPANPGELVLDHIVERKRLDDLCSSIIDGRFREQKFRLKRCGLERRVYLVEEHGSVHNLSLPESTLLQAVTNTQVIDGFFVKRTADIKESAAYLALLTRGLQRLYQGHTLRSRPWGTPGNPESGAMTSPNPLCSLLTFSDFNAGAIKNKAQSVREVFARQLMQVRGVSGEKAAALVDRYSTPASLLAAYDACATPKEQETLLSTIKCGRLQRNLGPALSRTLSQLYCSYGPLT
- experimental_details: Binding affinity to human GST-tagged MUS81-ECE1 expressed in Escherichia coli BL21(DE3)Rosetta2 cells assessed as dissociation constant by Surface plasmon resonance analysis
assay_endpoint: pKd
// pKd here means minus log10 of the molar concentration (mol/L)

Incoming: Tell me its pKd on Crossover junction endonuclease MUS81 (Homo sapiens, UniProt Q96NY9): O=C(N/N=C/c1cc(O)c(O)cc1O)c1cc2ccccc2cc1O
Outgoing: 8.21

Data credit: BindingDB's records for doi:10.1016/j.bmc.2023.117383
